- assayed_target: Platelet-derived growth factor receptor beta (Homo sapiens)
- assay_context: at 1 µM
property_measured: residual activity (%)
Write it as a number; the unit % goes unstated.

Task: State recorded residual activity with Platelet-derived growth factor receptor beta (Homo sapiens), entry N/C(=N\[N+](=O)[O-])N/N=C\c1ccc(-c2cccc([N+](=O)[O-])c2)o1 , no comment.
Result: 100

Task: State recorded residual activity with Platelet-derived growth factor receptor beta (Homo sapiens), entry COC(=O)[C@@]1(O)C[C@H]2O[C@]1(C)n1c3ccccc3c3c4c(c5c6ccccc6n2c5c31)C(=O)NC4 , no comment.
Result: 46

Task: State recorded residual activity with Platelet-derived growth factor receptor beta (Homo sapiens), entry CC(C)(C)c1cc(C=C(C#N)C#N)cc(Br)c1O , no comment.
Result: 103

Task: State recorded residual activity with Platelet-derived growth factor receptor beta (Homo sapiens), entry O=c1[nH]c2ccccc2n1C1CCN(Cc2ccc(-c3nc4cc5[nH]cnc5cc4nc3-c3ccccc3)cc2)CC1 , no comment.
Result: 108
